Test system: HOP-62 NSCLC
Experiment: NCI tumour cell line growth inhibition, 48 h; in the data active = GI50 below about 0.43 µM; inactive = the rest
Outcomes: Yes = active, No = inactive

Molecule	Target Or Test System	Category
CCN(C(=O)N1CCN(c2cc3c(cc2F)c(=O)c(C(=O)O)cn3C2CC2)CC1)c1nc(-c2ccccc2)cs1	HOP-62 NSCLC	No
Nc1nc(N)c2c(n1)NC(c1sc(Cl)nc1Cl)CC(c1ccccc1)=N2 (centres undefined)	HOP-62 NSCLC	No
Cc1cc(S(=O)(=O)/N=C(\N)Nc2cccc(O)c2)c(SCc2ccccc2)cc1Cl	HOP-62 NSCLC	No
CC1(C)OB(c2ccc(N(CCOS(C)(=O)=O)CCOS(C)(=O)=O)cc2)OC1(C)C	HOP-62 NSCLC	No
Cc1c2cnccc2c(C)c2c1c1cc(O)ccc1n2C(C)C	HOP-62 NSCLC	No
Cc1nc2ccccn2c1NC(=O)NN1C(=O)CSC1c1ccc(Cl)cc1 (centres undefined)	HOP-62 NSCLC	No
Oc1ccc(NC(=S)Nc2ccccc2)cc1	HOP-62 NSCLC	No
O=C1c2c(O)cccc2C(C(=O)CCCCCC(=O)C2c3cccc(O)c3C(=O)c3c(O)cccc32)c2cccc(O)c21	HOP-62 NSCLC	No
Cc1nnc(C[C@@H]2C=C(c3ccc(Cl)cc3)c3ccccc3-n3c(C)nnc32)o1	HOP-62 NSCLC	Yes

----------
Entries and their TGI values follow.
Test system: SK-OV-3 ovarian
Assay: NCI tumour cell line growth inhibition, 48 h
Reported Endpoint: TGI

Compound	Recorded Result
O=c1oc2ccc([N+](=O)[O-])cc2nc1/C=C(\O)c1ccccc1	> 100 µM
CC(C)C[S+]1C2=C([O-])CC(C)(C)CC2=Nc2ccccc21 (centres undefined)	> 100 µM
CC1=C(C(=O)Nc2cccc(Cl)c2)C(c2ccccc2O)C(C(=O)Nc2cccc(Cl)c2)=C(C)N1	54.4 µM
Cc1cc(F)c(C(=O)Nc2cccc(-c3nncn3C(C)C)n2)cc1-n1cnc(C2CC2)c1	> 100 µM
O=C1Cc2c(-c3ccccc3)cc(-c3ccccc3)nc2-c2ccccc2N1	18.9 µM
C=CC(=O)N[C@@H]1CN(c2nc(Nc3cn(C)nc3OC)c3ncn(C)c3n2)C[C@H]1F	> 47.2 µM
CC[C@H](C)[C@H](NC(=O)N(CCC#N)CCN(CCN(C(=O)N[C@@H](Cc1ccccc1)C(=O)OC)c1ccccc1)C(=O)N[C@H](C(=O)OC)C(C)C)C(=O)OC	41.2 µM
CCCC(=O)OCC1OC2OC(C)(C)OC2C2OC(C)(C)OC12 (centres undefined)	> 100 µM
O=C1c2ccccc2N=C(c2cc3c(cc2Cl)Sc2nccn2S3(=O)=O)OS(=O)(=O)N1c1ccccc1	> 100 µM

----------
Quick list: TGI per entry.
System: SK-OV-3 ovarian
Assay: NCI tumour cell line growth inhibition, 48 h

Compound	TGI
O=Cc1c2c(cc3c1CC1(C3)Cc3cc4c(c(C=O)c3C1)CCCC4)CCCC2	> 31.6 µM
CN(C)c1ccc(/C=C/C(=O)c2ccc(Nc3nc(Nc4ccc(F)cc4)nc(Nc4ccc(F)cc4)n3)cc2)cc1	55.7 µM
CC(=O)Nc1ccccc1-c1nc2ccccc2nc1-c1ccccc1	> 100 µM
Cc1cc2c(cc1Cl)SC(N(c1ccccc1Cl)S(=O)(=O)c1ccc(Br)s1)=NS2(=O)=O	> 100 µM
Cc1cc(S(=O)(=O)/N=C(\N)Nc2cccc(O)c2)c(SCc2ccccc2)cc1Cl	37.9 µM
O=C1/C(=C/c2cccnc2)SC(=S)N1Cc1ccco1	> 75.9 µM
O=C(CCC(=O)Nc1ccccc1C(F)(F)F)N/N=C1\C(=N\NC(=O)CCC(=O)Nc2ccccc2C(F)(F)F)C(c2ccc3c(c2)OCO3)Oc2ccccc21 (stereo not given)	> 82.5 µM
CCOC(=O)Cc1c(C)c2ccc(OC(C)=O)c(OC(C)=O)c2oc1=O	> 100 µM
Cc1noc2cccc(O)c12	> 100 µM
O=C(NC1CCN(Cc2ccccc2)CC1)c1cc(-c2cccnc2)nc2ccc(Cl)cc12	42.7 µM
CCCCCCCCCCC(=O)CCCCCCC(=O)O	> 100 µM
COc1ccccc1-n1cnc2c1NC(C)(C)N=C2C(N)=O	> 100 µM
O=C(NN1C(=O)C(Cl)C1c1cccc(O)c1)c1ccccc1O (stereo not given)	> 100 µM
Cc1nc2ccccn2c1NC(=O)NN1C(=O)CSC1c1ccc(Cl)cc1 (stereo not given)	> 100 µM
CN1CCN(CCCOc2cccc3nc(Nc4cc(Cl)cc(Cl)c4)ccc23)CC1	3.3 µM
Nc1nc(=O)n(C2CC(O)C(CO)O2)cc1F (stereo not given)	> 100 µM
C/C(NNC(=O)c1ccccc1O)=C1\C=Nc2ccccc2S1	> 100 µM
Cc1c2cnccc2c(C)c2c1c1cc(O)ccc1n2C(C)C	5.55 µM
CCN(CC)CC1CCCCN1CC(=O)N1c2cc(Cl)ccc2NC(=O)CC1C (stereo not given)	> 100 µM
Oc1ccc(NC(=S)Nc2ccccc2)cc1	> 100 µM

----------
Test system: U251 CNS
Experiment: NCI tumour cell line growth inhibition, 48 h

Compound	TGI
C#CCN(N=O)C(=O)NC(CCCCNC(=O)OCc1ccccc1)C(=O)OCc1ccccc1 (stereo unspecified)	76.8 µM
O=c1oc2cc(O)ccc2c2[nH]c3cc(O)ccc3c12	> 100 µM
O=C(O)C1C2C=CC(O2)C1C(=O)NCc1cccnc1 (stereo unspecified)	> 100 µM
Cc1sc2c(c1C)C(=O)c1cccn1-2	> 100 µM
Oc1ccc(-c2c3ccccc3c(-c3ccc(O)cc3)c3ccccc23)cc1	> 100 µM
COc1ccc(C=Nc2ccc(-c3nc4ccccc4s3)cc2)cc1OC	> 100 µM
Oc1ccc2ccccc2c1CCc1c(O)ccc2ccccc12	26 µM
COc1ccc(/C=C2/N=C(N/N=C\C(O)C(O)C(O)CO)NC2=O)cc1 (stereo unspecified)	> 100 µM
CC(=O)Nc1ccc(-c2nnc(SCC(=O)Nc3cccc(C)c3)o2)cc1	26.3 µM
CC(C)OP(=O)(OC(C)C)C(=NCCO)NNc1ccc([N+](=O)[O-])cc1	> 100 µM
Cc1noc2cccc(O)c12	> 100 µM

----------
System: HCT-116 colon
Assay: NCI tumour cell line growth inhibition, 48 h
Listing of entries alongside the reported GI50.

Compound	Target Or Test System	GI50
COc1ccc(-n2cc(-c3cc(OC)c(OC)c(OC)c3)nc2SCc2ccc(Cl)cc2)cc1OC	HCT-116 colon	> 100 µM
CC1(C)OB(c2ccc(N(CCOS(C)(=O)=O)CCOS(C)(=O)=O)cc2)OC1(C)C	HCT-116 colon	10.5 µM
C[C@@H](Nc1nc(N[C@H](C)C(F)(F)F)nc(-c2cccc(Cl)n2)n1)C(F)(F)F	HCT-116 colon	59.4 µM
COc1ccccc1-n1cnc(N)c1C(=O)c1cc(OC)c(OC)c(OC)c1	HCT-116 colon	4.95 µM
CC/C=C\C[C@H]1C/C=C2/C(=O)C=C[C@H]2C/C=C\CCCC(=O)O1	HCT-116 colon	1 µM

----------
System: MALME-3M melanoma
Experiment: NCI tumour cell line growth inhibition, 48 h
Reported Endpoint: TGI

Compound	Reported Endpoint	Recorded Result
C/C=C1/CN2CCC34C(=C(C(=O)OC)C1CC23)Nc1ccc(O)cc14 (stereo not given)	TGI	> 100 µM
CC(=O)C(N1CCCCC1)C(O)(C(F)(F)F)C(F)(F)F (stereo not given)	TGI	> 100 µM
O=C(COc1ccc(/C=C2\Oc3ccc4ccccc4c3C2=O)cc1)c1ccc([N+](=O)[O-])cc1	TGI	39.8 µM
CCOC(=O)c1c(N2CCCC2)[nH]c(=O)c(C(c2c(O)c(C(=O)OCC)c(N3CCCC3)[nH]c2=O)C(C)C)c1O	TGI	> 100 µM
Cc1ccc(Nc2c3c(c(C#N)c4nc5ccccc5n24)CCCC3)cc1	TGI	77.9 µM

----------
Test system: OVCAR-3 ovarian
Experiment: NCI tumour cell line growth inhibition, 48 h

Compound	Target Or Test System	TGI
CN(C)c1ccc(C(=S)c2ccc(N(C)C)cc2)cc1	OVCAR-3 ovarian	> 100 µM
COc1ccc2[nH]c(Cl)c(/C=C3/C(=O)Nc4ccccc43)c2c1	OVCAR-3 ovarian	1.07 µM
COc1c(C)c(C/C=C(\C)CC/C=C(\C)CC/C=C(\C)CCC=C(C)C)c(OC)c(OC)c1OC	OVCAR-3 ovarian	> 100 µM
OCC#CCOCC#Cc1ccccc1C#CCOCC#CCO	OVCAR-3 ovarian	> 100 µM
Cc1cc(S(=O)(=O)/N=C(\N)Nc2cccc(O)c2)c(SCc2ccccc2)cc1Cl	OVCAR-3 ovarian	26.2 µM
Cc1ccc2nc(NC(=O)C(=O)C(C(=O)c3ccc4ccccc4c3)C3OC(=O)c4ccccc43)sc2c1 (stereo not given)	OVCAR-3 ovarian	> 100 µM
O=C(NN1C(=O)C(Cl)C1c1cccc(O)c1)c1ccccc1O (stereo not given)	OVCAR-3 ovarian	> 100 µM
CCOC(=O)c1c(N2CCCC2)[nH]c(=O)c(C(c2c(O)c(C(=O)OCC)c(N3CCCC3)[nH]c2=O)C(C)C)c1O	OVCAR-3 ovarian	> 100 µM
c1ccc2c(c1)nnn2CNc1ccc(N2CCCCC2)cc1	OVCAR-3 ovarian	> 100 µM
N=c1c2sc3nc4ccccc4n3c2ncn1Cc1ccccc1	OVCAR-3 ovarian	> 100 µM

Reference for the values: PubChem BioAssay (NCI)
